The following compounds are shown together with reported log10 TGI values.
System: UACC-62 melanoma
ASSAY_INFO: NCI tumour cell line growth inhibition, 48 h
PROPERTY_NAME: log10 TGI (log10 of the value in µM)

| COMPOUND | log10 TGI |
| --- | --- |
| CC1(C)N=C(N)N=C(N)N1c1cccc(CCCCc2ccc(S(=O)(=O)F)cc2Cl)c1 | 1.23 |
| CCc1oc2ccccc2c1C(=O)c1cc(Br)c(O)c(Br)c1 | 1.53 |
| c1ccc2[nH]c(-c3ccc(OCCCCCOc4ccc(-c5nc6ccccc6[nH]5)cc4)cc3)nc2c1 | 1.03 |
| N#CSCC1CC(O)(c2ccccc2)C(c2ccccc2)C(c2ccc(F)cc2)O1 (stereo not given) | 0.75 |
| Cc1c(C(=O)CC(=O)C(=O)Nc2cccc(C(F)(F)F)c2)[n+](=O)c2ccccc2n1[O-] | 0.88 |
| O=C(/C=C/c1ccc(Cl)c(Cl)c1)CCN1CCN(CCC(=O)/C=C/c2ccc(Cl)c(Cl)c2)CC1 | 1.66 |
| Cc1cc(N/N=C/c2nc(-c3ccccc3)oc2C)c2cc(Cl)ccc2n1 | 0.53 |
